Origin of values: patent US10028961B2

Form field: IC50 (one value per entry).
target: IDH1 wt/IDH1 R132H heterodimer (Homo sapiens (Human), UniProt O75874, R132H); test: In vitro assay for IDH1m R132H inhibitors, IDH1 wt/IDH1 R132H heterodimer, NADPH depletion (diaphorase/resazurin); type: biochemical; details: IDH1 wt/IDH1 R132H heterodimer, 300 μM NADP (saturated); read-out: IDH1 wt/R132H NADPH/NADP IC50 saturated
Sequence (O75874 whole entry R132H): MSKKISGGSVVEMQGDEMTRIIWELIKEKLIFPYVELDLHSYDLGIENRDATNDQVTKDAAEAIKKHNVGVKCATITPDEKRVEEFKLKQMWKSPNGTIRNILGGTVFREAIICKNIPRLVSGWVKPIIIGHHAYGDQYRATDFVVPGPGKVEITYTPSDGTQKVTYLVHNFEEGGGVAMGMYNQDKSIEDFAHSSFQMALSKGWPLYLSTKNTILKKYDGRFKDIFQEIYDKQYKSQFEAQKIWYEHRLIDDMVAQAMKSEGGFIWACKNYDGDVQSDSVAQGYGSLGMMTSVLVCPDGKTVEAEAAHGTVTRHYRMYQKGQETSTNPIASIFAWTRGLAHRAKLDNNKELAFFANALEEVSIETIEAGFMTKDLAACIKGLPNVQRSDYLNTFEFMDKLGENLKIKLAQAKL
Sequence (O75874 whole entry, stated change not applied): as the sequence (O75874 whole entry R132H) above, with H132R counted along it

Here are 6 compounds together with their reported answers.
1) N#Cc1cc(Nc2nc(N[C@H]3CCC(F)(F)C3)nc(-n3ccc(C(F)(F)F)n3)n2)ccn1 [Compound 381] | < 0.05 µM
2) Fc1cc(F)cc(Nc2nc(N[C@@H]3CCC(F)(F)C3)nc(-c3cncc(C(F)(F)F)n3)n2)c1 [Compound 369] | < 0.05 µM
3) CC(F)(F)c1cccc(-c2nc(Nc3ccnc(C4(C#N)CC4)c3)nc(NC3CC(F)(F)C3)n2)n1 [Compound 372] | < 0.05 µM
4) FC(F)c1ccnc(-c2nc(NC3CC(F)(F)C3)nc(NC3CC(F)(F)C3)n2)n1 [Compound 411] | 0.1 to 1 µM
5) FC(F)(F)c1cc(Nc2nc(NCC3CC3)nc(-n3ccc(C(F)(F)F)n3)n2)ccn1 [Compound 407] | 0.1 to 1 µM
6) N#CC1(c2cc(Nc3nc(N[C@H]4CCC(F)(F)C4)nc(-c4cncc(C(F)(F)F)n4)n3)ccn2)CC1 [Compound 373] | < 0.05 µM

// next item, IC50 requested
response.value for FC1(F)CCC(Nc2nc(Nc3ccnc(C(F)(F)F)c3)nc(-c3nc(C(F)(F)F)cs3)n2)C1 (stereo not shown) [Compound 353] (field: IC50) = < 0.05 µM
